Biological target: Beta-1 adrenergic receptor (Rattus norvegicus, UniProt P18090, S190A)
Sequence (P18090 whole entry S190A): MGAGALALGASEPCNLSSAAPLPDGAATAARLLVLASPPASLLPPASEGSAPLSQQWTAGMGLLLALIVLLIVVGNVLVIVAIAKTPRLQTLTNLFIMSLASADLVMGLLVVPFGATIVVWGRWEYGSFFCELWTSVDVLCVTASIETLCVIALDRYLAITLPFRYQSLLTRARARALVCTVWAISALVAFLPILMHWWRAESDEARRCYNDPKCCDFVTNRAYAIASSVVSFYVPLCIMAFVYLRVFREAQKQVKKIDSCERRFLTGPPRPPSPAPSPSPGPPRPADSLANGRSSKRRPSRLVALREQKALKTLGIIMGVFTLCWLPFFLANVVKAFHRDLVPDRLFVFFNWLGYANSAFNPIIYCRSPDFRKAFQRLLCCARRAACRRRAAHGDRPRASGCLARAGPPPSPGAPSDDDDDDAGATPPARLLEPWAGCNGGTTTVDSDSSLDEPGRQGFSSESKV
observed property: pKd
Scale: pKd equals -log10([C]), with [C] in mol/L.

// pKd lookup, key: CC(C)(C)NCC(O)COc1cccc2[nH]c(C#N)c(I)c12 (stereo unspecified) 10.20
